System Name: T1, ECF14_3200
T1 chain: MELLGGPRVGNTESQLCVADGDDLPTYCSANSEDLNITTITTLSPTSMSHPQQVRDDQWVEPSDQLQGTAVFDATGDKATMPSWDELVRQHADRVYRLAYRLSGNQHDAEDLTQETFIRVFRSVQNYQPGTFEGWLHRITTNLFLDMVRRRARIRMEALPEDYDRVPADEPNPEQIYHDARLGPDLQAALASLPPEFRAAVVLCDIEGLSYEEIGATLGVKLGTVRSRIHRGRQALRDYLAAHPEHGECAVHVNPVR
// boundary case: fold repression equal to 2 maps to N; strictly smaller maps to Y

Binder	Assigned Category
AS16_973 (protein) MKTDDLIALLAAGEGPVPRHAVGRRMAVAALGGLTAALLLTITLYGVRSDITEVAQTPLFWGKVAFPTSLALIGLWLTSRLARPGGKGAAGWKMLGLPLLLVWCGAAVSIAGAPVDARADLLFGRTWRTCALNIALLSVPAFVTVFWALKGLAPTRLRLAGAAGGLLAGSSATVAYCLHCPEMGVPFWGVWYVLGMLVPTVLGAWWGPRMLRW	Y
AS01_3473 (protein) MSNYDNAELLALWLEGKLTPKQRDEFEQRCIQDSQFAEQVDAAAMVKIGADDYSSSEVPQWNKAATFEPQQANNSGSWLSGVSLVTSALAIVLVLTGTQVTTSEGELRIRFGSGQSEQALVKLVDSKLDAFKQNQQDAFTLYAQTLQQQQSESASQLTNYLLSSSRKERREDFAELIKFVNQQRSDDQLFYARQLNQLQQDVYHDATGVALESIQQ	N
AS03_1198 (protein) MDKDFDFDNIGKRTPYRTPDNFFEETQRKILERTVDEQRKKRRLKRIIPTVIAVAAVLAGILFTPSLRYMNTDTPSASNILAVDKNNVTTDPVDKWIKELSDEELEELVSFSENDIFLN	Y
AS25_1645 (protein) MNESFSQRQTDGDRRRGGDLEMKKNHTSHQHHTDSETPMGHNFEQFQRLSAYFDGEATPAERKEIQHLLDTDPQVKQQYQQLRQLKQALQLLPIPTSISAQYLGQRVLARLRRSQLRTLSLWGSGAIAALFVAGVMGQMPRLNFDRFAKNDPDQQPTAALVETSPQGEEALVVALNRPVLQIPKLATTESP	N
AS02_915 (protein) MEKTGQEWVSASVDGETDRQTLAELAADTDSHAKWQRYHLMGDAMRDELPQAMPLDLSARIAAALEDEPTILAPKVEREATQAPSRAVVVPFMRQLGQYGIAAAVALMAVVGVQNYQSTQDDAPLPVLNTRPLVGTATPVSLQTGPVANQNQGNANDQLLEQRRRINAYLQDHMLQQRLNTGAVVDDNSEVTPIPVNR	N
AS04_1609 (protein) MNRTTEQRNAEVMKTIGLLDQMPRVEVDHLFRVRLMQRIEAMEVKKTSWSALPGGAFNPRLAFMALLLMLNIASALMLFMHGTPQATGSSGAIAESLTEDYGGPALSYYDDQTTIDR	N

Below 2 on fold repression? Entry AS15_436 (protein) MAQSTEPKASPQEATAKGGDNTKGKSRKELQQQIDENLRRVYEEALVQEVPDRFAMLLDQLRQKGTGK
N

Hello, I'm reviewing records and need to know if fold repression of AS33_423 (protein) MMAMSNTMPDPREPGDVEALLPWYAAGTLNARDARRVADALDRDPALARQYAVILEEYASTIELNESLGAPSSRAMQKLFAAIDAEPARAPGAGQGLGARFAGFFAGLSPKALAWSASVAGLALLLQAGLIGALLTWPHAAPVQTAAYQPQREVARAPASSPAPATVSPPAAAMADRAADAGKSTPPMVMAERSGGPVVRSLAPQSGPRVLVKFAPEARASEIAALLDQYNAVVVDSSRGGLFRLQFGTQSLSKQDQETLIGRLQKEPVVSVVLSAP is below 2. Could you check?
N

Reference source for all entries: paper PMC3817407
